Reported IC50 values for a set of compounds
Target: Glutathione reductase, mitochondrial (Homo sapiens, UniProt P00390)
Sequence (P00390 whole entry): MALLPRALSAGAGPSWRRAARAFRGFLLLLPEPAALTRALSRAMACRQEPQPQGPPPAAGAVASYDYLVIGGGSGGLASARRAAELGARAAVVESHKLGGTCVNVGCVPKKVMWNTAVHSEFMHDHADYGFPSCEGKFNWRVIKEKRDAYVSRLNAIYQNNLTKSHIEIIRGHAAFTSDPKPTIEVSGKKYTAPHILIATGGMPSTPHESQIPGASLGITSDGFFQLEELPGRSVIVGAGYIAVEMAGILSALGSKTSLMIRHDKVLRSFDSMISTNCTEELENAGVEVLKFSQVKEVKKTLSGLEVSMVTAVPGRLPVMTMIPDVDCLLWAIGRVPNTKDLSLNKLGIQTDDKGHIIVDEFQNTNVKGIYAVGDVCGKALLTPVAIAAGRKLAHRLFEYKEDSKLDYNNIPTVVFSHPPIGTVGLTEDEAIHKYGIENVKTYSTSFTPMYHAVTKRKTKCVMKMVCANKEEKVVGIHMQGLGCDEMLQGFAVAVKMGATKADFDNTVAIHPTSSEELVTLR
Value expressed in µM; do not type the unit.

Answered cases to consult:
>  <COMPOUND>
O=[N+]([O-])OC1CC2c3ccccc3C1C2O (centres undefined)

>  <IC50 / µM>
10.3

$$$$
>  <COMPOUND>
O=[N+]([O-])O[C@H]1CC=CC[C@@H]1O (racemic)

>  <IC50 / µM>
23

$$$$
>  <COMPOUND>
O=[N+]([O-])O[C@H]1CC/C=C\CC[C@@H]1O (racemic)

>  <IC50 / µM>
29

$$$$
>  <COMPOUND>
O=[N+]([O-])O[C@@H]1CC2CCC1[C@@H]2O (some centres undefined)

>  <IC50 / µM>
6.81

$$$$
>  <COMPOUND>
O=[N+]([O-])O[C@@H]1CC[C@H](Br)[C@@H]2CC[C@H]1O2

>  <IC50 / µM>
11

$$$$
>  <COMPOUND>
O=[N+]([O-])O[C@H]1CCCCCC[C@@H]1O

>  <IC50 / µM>
14.2

$$$$
>  <COMPOUND>
O=[N+]([O-])O[C@H]1CCCC[C@@H]1O

>  <IC50 / µM>
21

$$$$
>  <COMPOUND>
O=[N+]([O-])O[C@H]1CC2CCC1[C@@H]2O (some centres undefined)

>  <IC50 / µM>
7.13

$$$$

As a next step, examine the compound that follows.
Input: Return IC50 for the following compound: O=[N+]([O-])O[C@@H](CO)c1ccccc1 (single isomer, unassigned)
Output: 16
